- Experimental Target: PYL9 (Arabidopsis thaliana)
- Construct: 6X-His; made in house; host or cells: E. coli BL21[DE3]pLysS
- Assay Text: receptor-mediated PP2C (HAB1) inhibition in vitro assay
- Type: biochemical
- Experimental Setup: compound at 25 μM; control without agonist = 100%
Reported Metric: PP2C Activity (25 μm) PYL9 (%)
Supply the numeric figure in %, leaving out any unit text.

- Compound: "CC(C)(C(=O)NS(=O)(=O)Cc1ccccc1C#N)c1ccccc1"
  Reported Metric: "PP2C Activity (25 μm) PYL9"
  Measurement: 83
- Compound: "CC(C)(C)c1ccc(C2(C(=O)NS(=O)(=O)Cc3ccc(C#N)cc3)CC2)cc1 [Compound 34]"
  Reported Metric: "PP2C Activity (25 μm) PYL9"
  Measurement: 107
- Compound: "CCc1ccc(C(C)(C)C(=O)NS(=O)(=O)Cc2ccc(C#N)cc2)cc1"
  Reported Metric: "PP2C Activity (25 μm) PYL9"
  Measurement: 98

Problem: What PP2C Activity (25 μm) PYL9 value was documented for this compound, `COc1ccccc1C1(C(=O)NS(=O)(=O)Cc2ccc(C#N)cc2)CC1` ?
Solution: 81

* * *

- Experimental Target: PYL9 (Arabidopsis thaliana, UniProt Q84MC7)
- Construct: 6X-His; made in house; host or cells: E. coli BL21[DE3]pLysS
- Sequence (Q84MC7 whole entry, one chain of several): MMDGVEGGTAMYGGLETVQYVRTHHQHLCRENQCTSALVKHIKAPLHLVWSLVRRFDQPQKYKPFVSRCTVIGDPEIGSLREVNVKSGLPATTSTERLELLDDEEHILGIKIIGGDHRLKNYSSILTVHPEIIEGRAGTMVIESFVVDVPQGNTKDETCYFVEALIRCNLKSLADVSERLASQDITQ
- Assay Text: receptor-mediated PP2C (HAB1) inhibition in vitro assay
- Format: biochemical
- Experimental Setup: compound at 25 μM; control without agonist = 100%
Reported Metric: PP2C Activity (25 μm) PYL9 (%)

A = N#Cc1ccc(CS(=O)(=O)NC(=O)C2(c3cccc(Cl)c3)CCOCC2)cc1 [Compound 58]
B = CC(C)(C(=O)NS(=O)(=O)Cc1ccc(C#N)cc1)c1ccc(Br)cc1 [Compound 2]
Problem: Could you check which of A and B has a smaller value for PP2C Activity (25 μm) PYL9? Reply with the label of the item you choose.
Solution: B
(B: 47%, A: 83%)

P = CCC(CC)(C(=O)NS(=O)(=O)Cc1ccccc1C#N)c1ccccc1 [Compound 17]
Q = CC(C)(C(=O)NS(=O)(=O)Cc1ccc(C#N)cc1)c1cccc(F)c1 [Compound 16]
Problem: Lower value for measured PP2C Activity (25 μm) PYL9? Options: P , Q Return value: the label identifying the chosen record.
Solution: Q

* * *

- Experimental Target: PYL6 (Arabidopsis thaliana, UniProt Q8S8E3)
- Construct: 6X-His; made in house; host or cells: E. coli BL21[DE3]pLysS
- Sequence (Q8S8E3 1-215): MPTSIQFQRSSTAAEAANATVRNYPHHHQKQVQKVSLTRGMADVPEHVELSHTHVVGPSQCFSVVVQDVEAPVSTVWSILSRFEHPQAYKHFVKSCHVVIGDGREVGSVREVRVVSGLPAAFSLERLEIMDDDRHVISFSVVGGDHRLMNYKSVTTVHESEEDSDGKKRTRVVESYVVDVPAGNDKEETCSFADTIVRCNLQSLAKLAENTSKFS
- Sequence (Q9CAJ0 23-511 partner): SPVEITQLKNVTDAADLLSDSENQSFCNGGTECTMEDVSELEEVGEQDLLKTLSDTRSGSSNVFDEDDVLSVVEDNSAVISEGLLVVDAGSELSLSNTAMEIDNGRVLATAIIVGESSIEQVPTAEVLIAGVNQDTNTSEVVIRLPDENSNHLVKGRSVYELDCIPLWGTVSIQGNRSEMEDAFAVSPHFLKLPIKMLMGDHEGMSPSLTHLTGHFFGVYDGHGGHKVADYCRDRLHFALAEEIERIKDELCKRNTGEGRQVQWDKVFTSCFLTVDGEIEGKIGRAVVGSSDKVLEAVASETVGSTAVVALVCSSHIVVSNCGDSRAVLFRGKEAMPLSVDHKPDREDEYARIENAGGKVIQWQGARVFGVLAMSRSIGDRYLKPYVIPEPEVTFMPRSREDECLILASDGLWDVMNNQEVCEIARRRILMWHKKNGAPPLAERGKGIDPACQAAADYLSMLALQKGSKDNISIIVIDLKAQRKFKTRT
- Assay Text: receptor-mediated PP2C (HAB1) inhibition in vitro assay
- Assay type: biochemical
- Experimental Setup: Table VII; read-out: PP2C Dose Curves PYL6 (IC50)
IC50 listing for selected compounds.
Provide the reading as a plain figure in µM.

Problem: Which value of IC50 has been reported for CC(C)(C(=O)NS(=O)(=O)Cc1ccc(C#N)cc1)c1ccc(F)cc1 [Compound 13] in the records?
Solution: 18.9

Problem: For N#Cc1ccc(CS(=O)(=O)NC(=O)C2(c3cccc(C#N)c3)CC2)cc1 [Compound 50] , what is its reported IC50?
Solution: 2.43

* * *

- Experimental Target: PYL9 (Arabidopsis thaliana)
- Construct: 6X-His; made in house; host or cells: E. coli BL21[DE3]pLysS
- Assay Text: receptor-mediated PP2C (HAB1) inhibition in vitro assay
- Format: biochemical
- Experimental Setup: compound at 25 μM; control without agonist = 100%
Reported Metric: PP2C Activity (25 μm) PYL9 (%)

- Molecule: "CC(C)(C(=O)NS(=O)(=O)Cc1ccc(C#N)cc1)c1ccc2ccccc2c1"
  Experimental Target: "PYL9 (Arabidopsis thaliana)"
  Reported Metric: "PP2C Activity (25 μm) PYL9"
  Measurement: 109
- Molecule: "COc1ccc(C(C)(C)C(=O)NS(=O)(=O)Cc2ccc(C#N)cc2)cc1OC"
  Experimental Target: "PYL9 (Arabidopsis thaliana)"
  Reported Metric: "PP2C Activity (25 μm) PYL9"
  Measurement: 102
- Molecule: "N#Cc1ccc(CS(=O)(=O)NC(=O)C2(c3ccccc3F)CC2)cc1"
  Experimental Target: "PYL9 (Arabidopsis thaliana)"
  Reported Metric: "PP2C Activity (25 μm) PYL9"
  Measurement: 75
- Molecule: "CC(C)(C)c1ccc(C2(C(=O)NS(=O)(=O)Cc3ccc(C#N)cc3)CC2)cc1 [Compound 40]"
  Experimental Target: "PYL9 (Arabidopsis thaliana)"
  Reported Metric: "PP2C Activity (25 μm) PYL9"
  Measurement: 103

* * *

# reported pIC50; entries follow
- Experimental Target: PYL6 (Arabidopsis thaliana)
- Construct: 6X-His; made in house; host or cells: E. coli BL21[DE3]pLysS
- Assay Text: receptor-mediated PP2C (HAB1) inhibition in vitro assay
- Type: biochemical
- Experimental Setup: Table VII; read-out: PP2C Dose Curves PYL6 (IC50)
pIC50: −log10 of the molar value.

- Compound: "CC(C)(C(=O)NS(=O)(=O)Cc1ccc(C#N)cc1)c1ccc(Cl)cc1 [Compound 6]"
  Measurement: "< 4.30"
- Compound: "N#Cc1ccc(CS(=O)(=O)NC(=O)C2(c3ccc(Br)cc3)CC2)cc1 [Compound 30]"
  Measurement: "< 4.30"

Pending compound:
Problem: pIC50 lookup needed for COc1ccccc1C1(C(=O)NS(=O)(=O)Cc2ccc(C#N)cc2)CCC1 [Compound 42] , thanks.
Solution: < 4.30
